Test system: Saccharomyces cerevisiae
Experiment: protein stability index of tFT-peptide fusion (C-terminal peptide) (PSI (0-1 scale)); higher = more stable (slower turnover)
Settings: genetic background: wild type; temperature: 30 C
RECORDED_METRIC: protein stability index
Number only, no unit.

Sample answers from the record:
CONSTRUCT_SEQUENCE: EAQLSRSEVLLV [COS2 C-terminal 12 aa]
protein stability index: 0.624

CONSTRUCT_SEQUENCE: KTVSDEEYAYIV [APM2 C-terminal 12 aa]
protein stability index: 0.707

CONSTRUCT_SEQUENCE: RGDDGESYAYLA [CDC53 C-terminal 12 aa]
protein stability index: 0.691

CONSTRUCT_SEQUENCE: TFCRLCSHIQYF [YAL059C-A C-terminal 12 aa]
protein stability index: 0.694

CONSTRUCT_SEQUENCE: KLQPQVYKPWSL [RSC8 C-terminal 12 aa]
protein stability index: 0.703

Here is another sequence to look at.
// query Read off the recorded protein stability index for RAQPGRKRKHKK [RSC58 C-terminal 12 aa]
// result 0.696

* * *

System: Saccharomyces cerevisiae
Assay: protein stability index of tFT-peptide fusion (C-terminal peptide) (PSI (0-1 scale)); higher = more stable (slower turnover)
Conditions: genetic background: das1 deletion; temperature: 30 C
This section presents sequences with their documented protein stability index values.
Number only, no unit.

Sample answers from the record:
CONSTRUCT_SEQUENCE: RSHKCYPHDVRF [NAT3 C-terminal 12 aa]
ENDPOINT_RESULT: 0.761
--
CONSTRUCT_SEQUENCE: LLDAIELYQRHK [HEM4 C-terminal 12 aa]
ENDPOINT_RESULT: 0.698
--
CONSTRUCT_SEQUENCE: LVSNSDTNIVWP [YMR247W-A C-terminal 12 aa]
ENDPOINT_RESULT: 0.687
--
CONSTRUCT_SEQUENCE: IDLIAFLRNGPL [GPR1 C-terminal 12 aa]
ENDPOINT_RESULT: 0.737
--
CONSTRUCT_SEQUENCE: WEKFIELEKNYK [MST1 C-terminal 12 aa]
ENDPOINT_RESULT: 0.696
--
CONSTRUCT_SEQUENCE: AIQEYNARYPLN [ABF2 C-terminal 12 aa]
ENDPOINT_RESULT: 0.708

// query Read off the recorded protein stability index for LRIVACNSKKSE [TOA2 C-terminal 12 aa]
// result 0.673

// query Read off the recorded protein stability index for NTANRIIEELLK [UBC1 C-terminal 12 aa]
// result 0.69

// query Read off the recorded protein stability index for WVDAFGIIYGAL [YIL108W C-terminal 12 aa]
// result 0.744

// query Read off the recorded protein stability index for SSSLSLESFMKS [SNM1 C-terminal 12 aa]
// result 0.748

// query Read off the recorded protein stability index for DYKKFIEDVLRQ [MLC1 C-terminal 12 aa]
// result 0.696

// query Read off the recorded protein stability index for IRMYLGSSLDIE [SRX1 C-terminal 12 aa]
// result 0.69

// query Read off the recorded protein stability index for DTHTNEIIKKEI [HRQ1 C-terminal 12 aa]
// result 0.698

// query Read off the recorded protein stability index for NILVIVYELLLG [YOS1 C-terminal 12 aa]
// result 0.215

// query Read off the recorded protein stability index for ANLFSSKKKAKL [RSB1 C-terminal 12 aa]
// result 0.803

// query Read off the recorded protein stability index for LPKPAGWQNHIG [KTR1 C-terminal 12 aa]
// result 0.701

// query Read off the recorded protein stability index for TTNANVNNSSLS [FKH1 C-terminal 12 aa]
// result 0.715

// query Read off the recorded protein stability index for NENDFNFINWEG [FLO8 C-terminal 12 aa]
// result 0.741

// query Read off the recorded protein stability index for KGATIKEIVLND [ATH1 C-terminal 12 aa]
// result 0.698

// query Read off the recorded protein stability index for RDGQKTSLIRLI [YBR259W C-terminal 12 aa]
// result 0.711

// query Read off the recorded protein stability index for HKNHSVPRLIQV [YCL068C C-terminal 12 aa]
// result 0.619

// query Read off the recorded protein stability index for ASRFAQFLKQDA [MET16 C-terminal 12 aa]
// result 0.717

// query Read off the recorded protein stability index for EGVGCRYPVVLI [YDR467C C-terminal 12 aa]
// result 0.704

// query Read off the recorded protein stability index for NFTIHRPLNNGR [YDL062W C-terminal 12 aa]
// result 0.731

// query Read off the recorded protein stability index for IFLMKKAYDLQI [EFM1 C-terminal 12 aa]
// result 0.675

* * *

System: Saccharomyces cerevisiae
Test: protein stability index of tFT-peptide fusion (C-terminal peptide) (PSI (0-1 scale)); higher = more stable (slower turnover)
Details: genetic background: wild type; temperature: 30 C
Classify by measured protein stability index: 1 if it is equal to or exceeds 0.7, 0 if it is smaller.

CONSTRUCT_SEQUENCE: LWVTLLPEFTNF [YBR121C-A C-terminal 12 aa]
CLASS_LABEL: 1

CONSTRUCT_SEQUENCE: IDLIAFLRNGPL [GPR1 C-terminal 12 aa]
CLASS_LABEL: 1

CONSTRUCT_SEQUENCE: TYSYTIDHPVLT [NUP100 C-terminal 12 aa]
CLASS_LABEL: 0

CONSTRUCT_SEQUENCE: TKGGNAGTKAYN [RTC3 C-terminal 12 aa]
CLASS_LABEL: 0

CONSTRUCT_SEQUENCE: ARGYVNVMDNIQ [SEC16 C-terminal 12 aa]
CLASS_LABEL: 0

CONSTRUCT_SEQUENCE: LKSGEKESNASK [SDC1 C-terminal 12 aa]
CLASS_LABEL: 0

CONSTRUCT_SEQUENCE: TSPRNICTSLCV [SAL1 C-terminal 12 aa]
CLASS_LABEL: 0

CONSTRUCT_SEQUENCE: VHDDSRCYTHFY [BNI4 C-terminal 12 aa]
CLASS_LABEL: 1

Next, consider the following sequence.
// query Would you say KHKNILSFNDNT [YER188C-A C-terminal 12 aa] shows protein stability index at minimum 0.7?
// result 1

* * *

System: Saccharomyces cerevisiae
Experiment: protein stability index of tFT-peptide fusion (C-terminal peptide) (PSI (0-1 scale)); higher = more stable (slower turnover)
Settings: genetic background: wild type; temperature: 30 C
Classify by measured protein stability index: true if it is equal to or exceeds 0.2, false if it is smaller.

CONSTRUCT_SEQUENCE: SFVFLVRRWLFV
CLASS_LABEL: false
--
CONSTRUCT_SEQUENCE: PVFVLFFFSSLV
CLASS_LABEL: true
--
CONSTRUCT_SEQUENCE: LQNCRVSVLLGW
CLASS_LABEL: true

// query Would you say PPSRSPLPPLLH shows protein stability index at minimum 0.2?
// result true

// query Would you say LLVRYYLFYVLV shows protein stability index at minimum 0.2?
// result true

// query Would you say GVVWPLGWVWVE shows protein stability index at minimum 0.2?
// result true

// query Would you say IRHALHFRVVAV shows protein stability index at minimum 0.2?
// result true

// query Would you say RASLPSLFRSLL shows protein stability index at minimum 0.2?
// result true

// query Would you say MLLFVSCCVFLF shows protein stability index at minimum 0.2?
// result false

// query Would you say KSRLFCFVYFLL shows protein stability index at minimum 0.2?
// result false

* * *

Tested on: Saccharomyces cerevisiae
Assay: protein stability index of tFT-peptide fusion (C-terminal peptide) (PSI (0-1 scale)); higher = more stable (slower turnover)
Conditions: genetic background: wild type; temperature: 30 C
This section presents sequences with their documented protein stability index values.

Sample answers from the record:
CONSTRUCT_SEQUENCE: ALPPIARPPPRV
protein stability index: 0.733

CONSTRUCT_SEQUENCE: DSFSEFDSSPVI
protein stability index: 0.727

CONSTRUCT_SEQUENCE: SRRRVTSCTARG
protein stability index: 0.729

CONSTRUCT_SEQUENCE: GCAWGVKYEVIL
protein stability index: 0.637

CONSTRUCT_SEQUENCE: PAFCLTRAPSTQ
protein stability index: 0.72

// query Read off the recorded protein stability index for KKKKKKKQKSKK
// result 0.704

// query Read off the recorded protein stability index for CLFLRLSPSCSR
// result 0.686

// query Read off the recorded protein stability index for FSAFFLFMFCFL
// result 0.488

// query Read off the recorded protein stability index for PRPLASRITSPA
// result 0.692

// query Read off the recorded protein stability index for KTTETVLRKRTK
// result 0.737

* * *

Tested on: Saccharomyces cerevisiae
Test: protein stability index of tFT-peptide fusion (C-terminal peptide) (PSI (0-1 scale)); higher = more stable (slower turnover)
Settings: genetic background: wild type; temperature: 30 C
RECORDED_METRIC: protein stability index

Sample answers from the record:
CONSTRUCT_SEQUENCE: NTDSIKKQKKKK
STUDY_SYSTEM: Saccharomyces cerevisiae
protein stability index: 0.675
--
CONSTRUCT_SEQUENCE: PLPPPPLAPPPP
STUDY_SYSTEM: Saccharomyces cerevisiae
protein stability index: 0.687
--
CONSTRUCT_SEQUENCE: PPAPPPPSTPHP
STUDY_SYSTEM: Saccharomyces cerevisiae
protein stability index: 0.672

// query Read off the recorded protein stability index for GRWGRGGASVVT
// result 0.649

// query Read off the recorded protein stability index for SQMMLKQKFLRR
// result 0.628

// query Read off the recorded protein stability index for EPGFWGGRGGRA
// result 0.661

// query Read off the recorded protein stability index for GVVVRGGEWGLD
// result 0.675

// query Read off the recorded protein stability index for FPPTALESMPSS
// result 0.737

// query Read off the recorded protein stability index for VPPHPFFPLPPP
// result 0.788

// query Read off the recorded protein stability index for LPPPLPPCPSGP
// result 0.77
